All values here come from patent US5840725A.

This listing pairs compounds with measured inhibition at 1 µM.
target: human neurokinin 1 (NK1) receptor (Homo sapiens, UniProt P25103); construct: expressed in transfected cells; host or cells: Chinese Hamster ovary (CHO) cells; assay: Neurokinin Receptor Binding Assay, NK1; conditions: 1 μM dose; [3H]-Substance P; CHO cell membranes
Sequence (P25103 whole entry): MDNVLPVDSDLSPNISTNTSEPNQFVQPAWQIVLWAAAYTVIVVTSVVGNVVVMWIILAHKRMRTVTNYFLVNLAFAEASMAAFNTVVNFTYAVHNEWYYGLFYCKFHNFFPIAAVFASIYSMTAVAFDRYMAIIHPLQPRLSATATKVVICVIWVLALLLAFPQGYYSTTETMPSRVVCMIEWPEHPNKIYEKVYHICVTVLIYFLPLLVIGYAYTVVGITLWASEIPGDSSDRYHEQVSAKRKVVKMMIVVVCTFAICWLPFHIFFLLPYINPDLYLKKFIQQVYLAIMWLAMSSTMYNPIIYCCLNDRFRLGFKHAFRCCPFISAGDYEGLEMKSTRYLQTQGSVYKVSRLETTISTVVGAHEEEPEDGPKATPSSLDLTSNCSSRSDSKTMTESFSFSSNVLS

compound	inhibition at 1 µM
CN1CCN(N=C(COCc2cc(C(F)(F)F)cc(C(F)(F)F)c2)C(CCN2CCC(O)(c3ccccc3)CC2)c2ccc(Cl)c(Cl)c2)CC1 (stereo not drawn) [Example 7]	69%
NC(CON=C(COCc1cc(C(F)(F)F)cc(C(F)(F)F)c1)C(CCN1CCC(N2CCCCC2)CC1)c1ccc(Cl)c(Cl)c1)=NO (stereo not drawn) [Example 39F]	93%
CON=C(COCc1noc(C(C)(C)C)n1)C(CCN1CCC(O)(c2ccccc2)CC1)c1ccc(Cl)c(Cl)c1 (stereo not drawn) [Example 22AL]	12%
OCCN(CC=C(COCc1cc(C(F)(F)F)cc(C(F)(F)F)c1)C(CCN1CCC(O)(c2ccccc2)CC1)c1ccc(Cl)c(Cl)c1)CCO (stereo not drawn) [Example 35C]	93%
CCOC(=O)C=C(COCc1cc(C(F)(F)F)cc(C(F)(F)F)c1)C(CCN1CCC(O)(c2ccccc2)CC1)c1ccc(Cl)c(Cl)c1 (stereo not drawn) [Example 2]	69%
CON=C(COCc1cc(C(F)(F)F)cc(C(F)(F)F)c1)C(CCN1CCC(O)(c2ccccc2)CC1)c1ccc(Cl)c(Cl)c1 (stereo not drawn) [Example 1]	88%

---

Molecular target: NK3 (Homo sapiens)
Sequence (P29371 1-465): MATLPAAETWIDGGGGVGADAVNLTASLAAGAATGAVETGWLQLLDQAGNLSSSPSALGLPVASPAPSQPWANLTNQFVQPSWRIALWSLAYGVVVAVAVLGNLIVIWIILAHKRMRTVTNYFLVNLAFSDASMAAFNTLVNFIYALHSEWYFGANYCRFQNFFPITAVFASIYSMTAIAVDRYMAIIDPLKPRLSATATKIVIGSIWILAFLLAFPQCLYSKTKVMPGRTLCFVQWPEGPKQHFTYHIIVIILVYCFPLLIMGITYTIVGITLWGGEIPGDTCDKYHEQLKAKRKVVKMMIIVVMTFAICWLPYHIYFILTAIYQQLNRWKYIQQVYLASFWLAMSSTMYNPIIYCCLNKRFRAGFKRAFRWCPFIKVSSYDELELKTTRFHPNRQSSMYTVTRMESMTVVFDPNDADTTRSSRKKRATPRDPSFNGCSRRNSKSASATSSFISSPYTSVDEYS
Assay: NK3 activity (procedure similar to literature)
Format: binding
pKi: −log10 of the molar value.
measure: pKi

> print(dat)
                                   molecule  measure  experimental.result
1  CON=C(COCc1cc(C(F)(F)F)cc(C(F)(F)F)c1)C(CCN1CCC(O)(c2ccccc2)CC1)c1ccc(Cl)c(Cl)c1 (stereo not shown)      pKi                 6.96
